Test: thallium influx changes without GIRK channels – cell-based, HEK-293 rmGlu8, no GIRK, thallium flux, counter-screen for GIRK activator project, confirmation (AID 623868);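 also: extra codes mark interference with 3 for fluorescent and 4 for baseline rise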
Settings: thallium flux fluorescence, at 10 µM, actives lie on both sides, codes: 1 enhancer, -1 blocker, 0 none, thallium stimulus containing EC20 glutamate
The whole screen tested about 2,100 compounds, of which about 760 (36%) were called active. These entries were drawn from the full list.
This section presents compounds with their documented manual score values.
assayReadout: manual score

compound: C=C(C)C1CC=C(C)/C(=N/NC(=O)COc2ccc(C)cc2)C1 (stereo unspecified)
measured: 0 (inactive)

compound: CCOC(=O)c1c(-c2ccc(C)o2)csc1NC(=S)NC(=O)N(C)C
measured: 1 (active)

compound: CC(C)N(C(=O)CN(C#N)c1nc(N(C)C)nc(N(C)C)n1)c1ccccc1
measured: 0 (inactive)

compound: Cc1ccc(OCC(=O)N/N=C/c2cccn2C)cc1
measured: 0 (inactive)

compound: CCNC(=S)Nc1scc(-c2ccccc2)c1C(=O)OCC
measured: 1 (active)

compound: CCOc1ccc(NC(=O)Nc2cc(C)ccc2OC)cc1
measured: 0 (inactive)

compound: CCOC(=O)c1c(-c2ccccc2)csc1NC(=S)NC
measured: 1 (active)

compound: COc1ccc(OCC(=O)NNC(=O)C(=O)Nc2ccc(C)cc2)cc1
measured: 1 (active)

compound: CCOc1cc(C2NN=C(c3ccc(C)cc3)S2)ccc1O (stereo unspecified)
measured: 1 (active)

compound: CCOC(=O)c1c(-c2ccc(C)o2)csc1NC(=S)NC(=O)c1cccs1
measured: 0 (inactive)

compound: CCOC(=O)c1c(C)[nH]c2c1cc(O)c1ccccc12
measured: 0 (inactive)

====

Experiment: thallium influx changes without GIRK channels – cell-based, HEK-293 rmGlu8, no GIRK, thallium flux, counter-screen for GIRK activator project, confirmation (AID 623868);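 also: extra codes mark interference with 3 for fluorescent and 4 for baseline rise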
Settings: thallium flux fluorescence, at 10 µM, actives lie on both sides, codes: 1 enhancer, -1 blocker, 0 none, thallium stimulus containing EC20 glutamate
Among all 2,100 compounds or so, about 760 (36%) were called active.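 How the source made its calls: active means thallium-flux fluorescence traces judged by eye to show enhanced or reduced glutamate response, manual score 1 or -1, so both directions (some results past the limit were not filed as active); inactive means the rest, including fluorescent or raised-baseline compounds.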 The list is a sample of the results.
Outcomes: YES = active, NO = inactive

molecule: Cn1cc(S(=O)(=O)Nc2ccc(F)cc2F)c(=O)n(C)c1=O
group: NO

molecule: Cc1cc(C)nc(N2CCCC(C(=O)NCCc3ccc(F)cc3)C2)n1 (stereo unspecified)
group: NO

molecule: CO/N=C(\Cn1ncc(N2CCCC2)c(Br)c1=O)c1ccc(Cl)cc1
group: NO

molecule: CCC(=O)Nc1ccc2c(c1)ncn2-c1ccc(OC)cc1
group: NO

molecule: C=CCOc1ccc(/C(O)=C2/C(=O)C(=O)N(CCCN3CCOCC3)C2c2ccccc2)cc1 (stereo unspecified)
group: NO

molecule: Cc1[nH]n(-c2ccc(Cl)cc2)c(=O)c1/C=N/c1nnc(-c2ccccc2)s1
group: YES

====

Test: thallium influx changes without GIRK channels – cell-based, HEK-293 rmGlu8, no GIRK, thallium flux, counter-screen for GIRK activator project, confirmation (AID 623868);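 also: extra codes mark interference with 3 for fluorescent and 4 for baseline rise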
Conditions: thallium flux fluorescence, at 10 µM, actives lie on both sides, codes: 1 enhancer, -1 blocker, 0 none, thallium stimulus containing EC20 glutamate
The campaign covered roughly 2,100 compounds. About 760 (36%) were called active.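 How the source made its calls: active means thallium-flux fluorescence traces judged by eye to show enhanced or reduced glutamate response, manual score 1 or -1, so both directions (some results past the limit were not filed as active); inactive means the rest, including fluorescent or raised-baseline compounds.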 Only a sample is shown.
Outcomes: YES = active, NO = inactive

molecule: Cc1ccc(NC(=O)Cn2cccc2)cc1Cl
group: NO
//
molecule: CN=C1c2c(-c3ccccc3)c3cc(OC)ccc3n2CCN1C
group: NO
//
molecule: Cn1c2ccccc2c2cc(C(=O)NNS(=O)(=O)c3ccc(F)cc3)sc21
group: NO
//
molecule: Cc1cccc2sc(NC(=O)Cn3cccc3)nc12
group: YES
//
molecule: S=C1Nc2ccccc2Sc2ccc(Cl)cc21
group: NO
//
molecule: CCCCOC(=S)NC(=O)c1sc2ccccc2c1Cl
group: YES
//
molecule: Clc1ccc2c(c1)C(N1CCNCC1)Cc1ccccc1S2 (configuration not stated)
group: NO
//
molecule: S=C1Nc2cc(Cl)ccc2Sc2ccccc21
group: YES
//
molecule: O=C(NCCCn1ccnc1)Nc1ccc(Cl)c(Cl)c1
group: NO
//
molecule: CN1CCN(CC(=O)N2c3ccccc3C(C)(c3ccc(Cl)cc3)CC2(C)C)CC1 (configuration not stated)
group: NO
//
molecule: O=C(NC(=S)N(CCCCO)C1CCCCC1)c1sc2ccccc2c1Cl
group: YES
//
molecule: S=C1CCSc2ccc(Cl)cc2N1
group: YES

====

Test: thallium influx changes without GIRK channels – cell-based, HEK-293 rmGlu8, no GIRK, thallium flux, counter-screen for GIRK activator project, confirmation (AID 623868);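 also: extra codes mark interference with 3 for fluorescent and 4 for baseline rise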
Conditions: thallium flux fluorescence, at 10 µM, actives lie on both sides, codes: 1 enhancer, -1 blocker, 0 none, thallium stimulus containing EC20 glutamate
Screen size: about 2,100 compounds; about 760 (36%) were called active.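 How the source made its calls: active means thallium-flux fluorescence traces judged by eye to show enhanced or reduced glutamate response, manual score 1 or -1, so both directions (some results past the limit were not filed as active); inactive means the rest, including fluorescent or raised-baseline compounds.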 A selection follows.
Outcomes: 1 (yes) = active, 0 (no) = inactive

compound: Cc1conc1NC(c1cccs1)c1ccc2cccnc2c1O (stereo unspecified)
group: 0 (no)

compound: CCOC(=O)C1=C(C)OC(N)=C(C#N)C1c1cncc(-c2ccc(F)cc2)c1 (stereo unspecified)
group: 0 (no)

compound: CCN(CC)CC(O)COc1ccccc1C(=O)CCc1ccccc1 (stereo unspecified)
group: 0 (no)

compound: CSc1cccc(NC(=O)COc2ccccc2)c1
group: 0 (no)

compound: COC(=O)COc1ccc(S(=O)(=O)Nc2ccccc2C(=O)OC)cc1
group: 0 (no)

compound: COC(=O)c1ccccc1NC(=S)NC(=O)COc1ccccc1
group: 1 (yes)

compound: COC(=O)c1ccccc1NC(=S)NC(=O)c1ccccc1
group: 1 (yes)

compound: CC(C)OCCCNC(=O)c1cccc(NC(=O)c2ccccc2)c1
group: 0 (no)

compound: O=C(COc1ccccc1)NC(=S)Nc1ccc2c(c1)Cc1ccccc1-2
group: 0 (no)

compound: Cn1cccc1-c1nc2ccc(NC(=O)c3cccs3)cc2[nH]1
group: 0 (no)

compound: COC(=O)c1ccccc1NC(=S)NC(=O)COc1ccc(C)cc1
group: 0 (no)

====

Test: thallium influx changes without GIRK channels – cell-based, HEK-293 rmGlu8, no GIRK, thallium flux, counter-screen for GIRK activator project, confirmation (AID 623868);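 also: extra codes mark interference with 3 for fluorescent and 4 for baseline rise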
Details: thallium flux fluorescence, at 10 µM, actives lie on both sides, codes: 1 enhancer, -1 blocker, 0 none, thallium stimulus containing EC20 glutamate
Screen size: about 2,100 compounds; about 760 (36%) were called active.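 Rule for the calls: active = thallium-flux fluorescence traces judged by eye to show enhanced or reduced glutamate response, manual score 1 or -1, so both directions (some results past the limit were not filed as active); inactive = the rest, including fluorescent or raised-baseline compounds.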 These entries were drawn from the full list.
Outcomes: active, inactive

compound: CCOC(=O)CSc1nc2ccc(Nc3nc(N4CCOCC4)nc(N4CCOCC4)n3)cc2s1
group: inactive
//
compound: CCOC(=O)c1c(NC(=S)NC)sc2c1CC(C)(C)SC2
group: active
//
compound: CCOC(=O)C1=C(NC(=S)NC(=O)c2ccccc2)c2ccccc2CC1C(C)C (stereo not drawn)
group: inactive
//
compound: Cc1cc(C(=O)CSc2n[nH]c(N)n2)c(C)n1-c1cc(F)ccc1F
group: inactive
//
compound: COc1cc2c(C(=O)N3CCN(C4CCCCC4)CC3)cn(CC(C)C)c(=O)c2cc1OC
group: inactive
//
compound: COc1ccc(C2CC(c3ccc(Cl)c(Cl)c3)Nc3nc(N)nn32)cc1 (stereo not drawn)
group: inactive
//
compound: CCCn1c(=O)c2ccccc2n2c(SCc3nc4ccccc4s3)nnc12
group: active
//
compound: O=c1c(O)c(-c2cccs2)oc2ccc(Cl)cc12
group: inactive
//
compound: CCOC(=O)c1c(NC(=S)NCCc2ccccc2)sc2c1CC(C(C)C)OC2 (stereo not drawn)
group: inactive
//
compound: COc1ccc(NC2=Nc3cccc4cccc2c34)cc1OC
group: inactive
//
compound: COCC(C)OC(=O)c1c(N)n(CC(C)C)c2nc3ccccc3nc12 (stereo not drawn)
group: inactive
//
compound: Cc1ccc2nc(NC(=S)NC(=O)c3cccs3)sc2c1
group: inactive
//
compound: CCCn1c(=O)c2ccccc2n2c(SCC(=O)N3CCc4ccccc4C3)nnc12
group: active
//
compound: S=c1[nH]ccn1-c1cccc(Cl)c1
group: inactive
//
compound: Cn1c(SCC(=O)N2c3ccccc3CCc3ccccc32)nnc1-c1ccc(O)cc1
group: inactive
//
compound: CN1CCN(C(=O)c2sc(=S)n(-c3ccccc3)c2N)CC1
group: inactive
//
compound: O=C(NCCN1CCN(C(=O)Nc2ccccc2)CC1)Nc1ccccc1
group: inactive
//
compound: C=CCNC(=S)Nc1sc2c(c1C(=O)OCC)CC(C)(CC)OC2 (stereo not drawn)
group: active
//
compound: CC(C)c1ccc(-c2noc(C3CCCN(S(C)(=O)=O)C3)n2)cc1 (stereo not drawn)
group: inactive
//
compound: Fc1ccccc1NC(=S)N/N=C/c1ccccc1Br
group: active
//
compound: O=C(NC(=S)Nc1nc2ccccc2s1)c1cccs1
group: active
//
compound: CCOc1ccccc1NC(=O)Nc1cccc(C(C)=O)c1
group: inactive
//
compound: O=C(O)c1cccc(Nc2nc(N3CCOCC3)nc(N3CCOCC3)n2)c1
group: active
